studyTarget: T1, ZFP SBS#672 (synthetic)
T1 chain: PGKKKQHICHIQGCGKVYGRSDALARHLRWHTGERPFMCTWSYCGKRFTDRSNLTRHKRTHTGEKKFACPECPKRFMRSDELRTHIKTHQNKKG
protocolNotes: EMSA
assaySetup: tags: MBP fusion
propertyMeasured: Kd (µM)
Express the result in µM but write the number alone.

Input: Recorded Kd for TCGGACGTGG (dsDNA) DNA 1: TCGGACGTGG DNA 2: CCACGTCCGA , please?
Output: 0.024
